Molecular target: Proteasome subunit beta (Trypanosoma cruzi)
Sequence (whole entry): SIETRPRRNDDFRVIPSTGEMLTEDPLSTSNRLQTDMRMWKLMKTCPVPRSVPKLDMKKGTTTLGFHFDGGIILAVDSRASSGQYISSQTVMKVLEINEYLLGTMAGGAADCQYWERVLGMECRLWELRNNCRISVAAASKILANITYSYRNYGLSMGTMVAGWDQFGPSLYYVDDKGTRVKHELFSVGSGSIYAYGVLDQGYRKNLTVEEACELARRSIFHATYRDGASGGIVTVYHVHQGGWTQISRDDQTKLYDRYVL
Assay: Trypanosoma cruzi proteasome chymotrypsin-like activity (TcProtChymo) assay. Also: in the data most compounds retested in dose-response had high values.
Assay type: functional
Parameters: scale not given: direction of the effect not stated beside the values
Conditions: 9.37 µM
For each entry below, report its Percent Effect value.
Give bare numbers, in %.

- molecule: "CN(c1ccc(C(=O)NCCCN2CCOCC2)c(Cl)c1)S(C)(=O)=O"
  Percent Effect (%): 7.16
- molecule: "CN(C(=O)Cc1c[nH]c2ccccc12)C1CCN(c2ccccn2)CC1"
  Percent Effect (%): 4.16
- molecule: "CCOC(=O)CN1CCC2(CC1)CC(=O)c1ccc(OC)cc1O2"
  Percent Effect (%): 19.1
- molecule: "CC(C)(C)c1n[nH]c(C2CN(C(=O)c3csnn3)CCO2)n1 (configuration not stated)"
  Percent Effect (%): 2.4

Give Percent Effect for each of the items listed below.
1. CCC(=O)N1CCCC(c2cc(Nc3ncccn3)nc(C)n2)C1 (configuration not stated)
2. CN(Cc1ccccc1)CC(O)Cn1cnc2ccsc2c1=O (configuration not stated)
3. Nc1cc(CCC2CN(Cc3ccc(C(=O)O)cc3)CCO2)ccn1 (configuration not stated)
4. CC1CN(CC(=O)NC2CCCC2)CCN1c1ccc2nncn2n1 (configuration not stated)
5. COCCNC(=O)[C@H]1CN(Cc2nccs2)C[C@H]2OCC[C@@H]12

1. 10.6
2. 1.62
3. 13
4. 15.8
5. 6.25

Give Percent Effect for each of the items listed below.
1. O=C([C@H]1CCCO1)N1CC[C@H](O)[C@@H]1Cc1ccncc1
2. Cc1c[nH]nc1C1CCCCN1C(=O)Cn1cc(Cl)cn1 (configuration not stated)

1: -1.57; 2: 15.1

Give Percent Effect for each of the items listed below.
1. Cc1nc(CC(=O)N2CCCCC2c2ccn3ccnc3n2)cs1 (configuration not stated)
2. O=C(CCc1ccccc1)Nc1ncccc1OC(F)F
3. Cc1cc(-c2nn(C)c(Cl)c2CN2CCOCC(O)C2)no1 (configuration not stated)
4. COCC(=O)N1CCC(c2cccc(Cc3ccc(F)cc3)n2)CC1
5. NC(=O)C1CCCN(Cc2c(-c3ccco3)[nH]c3ncccc23)C1 (configuration not stated)
6. O=C(NC1CC1)[C@H]1C[C@@H]2CCN(CCc3ccccc3)C[C@H]2O1

[12.6, 13.5, 13, 5.15, 9.83, 4.85]

---

Molecular target: Ubiquitin-activating enzyme e1, putative (Leishmania donovani (strain BPK282A1))
Sequence (whole entry): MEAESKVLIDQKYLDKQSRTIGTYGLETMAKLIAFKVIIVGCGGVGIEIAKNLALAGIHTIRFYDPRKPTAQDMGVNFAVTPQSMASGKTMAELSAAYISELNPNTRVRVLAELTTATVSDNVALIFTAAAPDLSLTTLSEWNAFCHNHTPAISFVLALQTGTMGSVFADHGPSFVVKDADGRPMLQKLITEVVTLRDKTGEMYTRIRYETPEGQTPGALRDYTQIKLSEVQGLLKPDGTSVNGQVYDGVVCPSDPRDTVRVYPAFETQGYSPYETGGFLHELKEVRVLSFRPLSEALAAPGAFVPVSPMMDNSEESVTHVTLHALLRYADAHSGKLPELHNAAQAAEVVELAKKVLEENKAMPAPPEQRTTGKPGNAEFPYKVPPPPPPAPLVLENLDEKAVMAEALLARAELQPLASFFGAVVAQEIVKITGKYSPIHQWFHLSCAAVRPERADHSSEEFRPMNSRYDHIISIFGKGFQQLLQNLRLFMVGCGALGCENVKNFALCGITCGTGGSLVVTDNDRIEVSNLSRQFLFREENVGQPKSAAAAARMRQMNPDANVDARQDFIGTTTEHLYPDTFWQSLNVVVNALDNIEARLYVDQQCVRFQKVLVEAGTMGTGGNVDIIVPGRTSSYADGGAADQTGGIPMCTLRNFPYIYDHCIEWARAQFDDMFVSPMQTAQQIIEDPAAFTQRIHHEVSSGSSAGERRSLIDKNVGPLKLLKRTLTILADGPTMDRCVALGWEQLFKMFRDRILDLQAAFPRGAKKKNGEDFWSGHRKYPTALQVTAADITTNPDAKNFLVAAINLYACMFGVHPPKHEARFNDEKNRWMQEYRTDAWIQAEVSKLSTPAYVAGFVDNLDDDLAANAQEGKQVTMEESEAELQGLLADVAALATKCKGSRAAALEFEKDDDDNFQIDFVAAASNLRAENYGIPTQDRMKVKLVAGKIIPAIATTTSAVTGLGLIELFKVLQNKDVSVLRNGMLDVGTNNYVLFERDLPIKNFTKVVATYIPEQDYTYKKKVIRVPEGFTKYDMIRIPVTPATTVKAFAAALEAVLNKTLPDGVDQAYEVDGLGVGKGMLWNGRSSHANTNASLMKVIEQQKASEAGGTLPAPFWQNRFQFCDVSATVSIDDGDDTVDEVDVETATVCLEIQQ
Assay: Leishmania donovani Ubiquitin Activating Enzyme (LdE1)
Type: functional
Set-up: scale not given: direction of the effect not stated beside the values
Settings: 30 µM
Entries with a potency or affinity are not part of this list.
For each entry below, report its Percent Effect value.
One number for each entry, in %.

- compound: "CC(C)SCC(=O)N1CCc2c(nc(N(C)C)nc2N(C)C)C1"
  Percent Effect (%): 13.3
- compound: "Cc1cc(NC(=O)NCC(C)O)n(C)n1 (configuration not stated)"
  Percent Effect (%): 10.5
- compound: "CCS(=O)(=O)c1ccccc1N1CCC(NC(C)=O)CC1"
  Percent Effect (%): 21.6

Give Percent Effect for each of the items listed below.
1. CCN1CCC2(CCC(=O)N2Cc2cccc(C)n2)CC1
2. Cn1ncc2c1C(COCC1CC1)CN(Cc1nccs1)C2 (configuration not stated)
3. O=C(CSC1CCc2ccccc2NC1=O)NCCO (configuration not stated)
4. Cc1cc(=O)[nH]c(SCC(=O)N(C)CC2Cc3ccccc3CN2C)n1 (configuration not stated)
5. Cc1cnc(C)c(N2CCN(Cc3ccc(-c4cc[nH]n4)o3)CC2)n1
6. Cc1ccc(N2CCN(C(=O)COc3nccc(C)n3)CC2)nn1

9.09
15.6
13.5
5.41
10.7
21.9

Give Percent Effect for each of the items listed below.
1. N#CCCN(C(=O)CN1CCCC1C1CCCCC1)c1ccccc1 (configuration not stated)
2. CC(C)c1noc(CCC(=O)NCC2CCOC2)n1 (configuration not stated)

0
0

What is its Percent Effect for Ubiquitin-activating enzyme e1, putative (Leishmania donovani (strain BPK282A1))? Entry: `CC(C)CNC(=O)Nc1ccc(CN2CCOC2=O)cc1`
-15.3
